The entries below are paired with their reported pEC50.
# experimental-target: mMC4R (Mus musculus, UniProt P56450)
# Sequence (P56450 whole entry): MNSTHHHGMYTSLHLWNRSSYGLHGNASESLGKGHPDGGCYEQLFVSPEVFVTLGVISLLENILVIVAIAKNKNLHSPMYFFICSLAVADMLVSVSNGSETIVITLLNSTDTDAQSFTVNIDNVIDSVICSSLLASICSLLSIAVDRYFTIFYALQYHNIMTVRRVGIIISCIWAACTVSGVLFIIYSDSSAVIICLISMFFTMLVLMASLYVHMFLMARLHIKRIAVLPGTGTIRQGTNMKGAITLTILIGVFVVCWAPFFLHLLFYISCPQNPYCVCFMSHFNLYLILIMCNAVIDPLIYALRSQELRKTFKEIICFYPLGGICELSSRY
# assay: AlphaScreen cAMP agonist assay, HEK293 cells stably expressing mMC4R
Scale: negative log10 of molar concentration, which is what pEC50 denotes.

According to the records, this compound CC(C)CC1CNC(=N)N1CC1CCCN1CC(CC1CCCCC1)N1CC(C(C)O)N(CC2CCC(C(C)(C)C)CC2)C1=N (stereo not shown) displays pEC50 of 5.92

According to the records, this compound CC(C)C[C@@H]1CNC(=N)N1C[C@@H]1CCCN1CCN1C[C@@H]([C@H](C)O)N(CC2CCC(C(C)(C)C)CC2)C1=N (stereo partly shown) displays pEC50 of 4.40

According to the records, this compound CC(C)C[C@@H]1CNC(=N)N1C[C@H]1CCCN1C[C@H](Cc1ccccc1)N1C[C@@H]([C@H](C)O)N(CC2CCC(C(C)(C)C)CC2)C1=N (stereo partly shown) displays pEC50 of 5.80

According to the records, this compound CCC[C@H]1CN([C@H](CC2CCCCC2)CN2CCC[C@H]2CN2C(=N)NC[C@H]2C(C)C)C(=N)N1CC1CCC(C(C)(C)C)CC1 (stereo partly shown) displays pEC50 of 4.41

According to the records, this compound CCC[C@@H]1CN([C@@H](CC2CCCCC2)CN2CCC[C@H]2CN2C(=N)NC[C@H]2C(C)C)C(=N)N1CC1CCC(C(C)(C)C)CC1 (stereo partly shown) displays pEC50 of 4.30

According to the records, this compound CCC[C@@H]1CN([C@H](CC2CCCCC2)CN2CCC[C@@H]2CN2C(=N)NC[C@H]2C(C)C)C(=N)N1CC1CCC(C(C)(C)C)CC1 (stereo partly shown) displays pEC50 of 4.92
